# Tested On: EBNA1 (Epstein-Barr virus)
# Sequence (P03211 459-607): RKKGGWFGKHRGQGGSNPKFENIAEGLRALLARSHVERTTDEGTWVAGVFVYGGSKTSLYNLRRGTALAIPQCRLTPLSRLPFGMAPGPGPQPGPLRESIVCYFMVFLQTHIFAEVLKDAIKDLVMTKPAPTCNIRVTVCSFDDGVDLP
# Assay Overview: ALPHA proximity DNA binding assay
# Setup Conditions: read-out: IC50, inhibition of EBNA1 DNA binding; ALPHA proximity assay
Could you please report measured IC50 for the items listed next?
One number for each entry, in µM.

1. O=C(O)c1ccccc1-n1cccc1; 2

# context switch: different compound, same IC50
Query: Need IC50 of `O=C(O)c1cccc(C#Cc2ccccc2)c1-n1cccc1` , thanks.
Reply: 0.89
